Hello, the source for this data is patent US20160297884A1, in case you need it.

Known koff of a selection of binders
Target: T1, Human BCMA (human, UniProt Q02223 1-54, limits assumed)
T1 construct: Soluble analyte in SPR; construct not described; also called huBCMA; B-cell maturation antigen
T1 sequence (looked up): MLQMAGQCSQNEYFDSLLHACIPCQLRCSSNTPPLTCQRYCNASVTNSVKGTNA
Assay: SPR, IgG immobilised, 37 C
Experimental: All experiments were performed on a Bio-Rad Proteon XPR36 surface Plasmon resonance biosensor (Bio-Rad, Hercules, Calif.). […] The analysis temperature for the immobilization was 25° C. and the running buffer was HBS-T+(10 mM HEPES, 150 mM NaCl, 0.05% Tween-20, pH 7.4). […] The analysis temperature for the BCMA binding analysis was 37° C. or 25° C. in a running buffer of HBS-T+, supplemented with 1 mg/mL BSA. […] Immediately after the 50 nM BCMA injection, dissociation was monitored for 2 hours. […]
Please reply with the bare figure in s⁻¹ and do not write the unit itself.

{"binder": "L3.PY/L3.KY/P6E01 (antibody, V domains shown, IgG) VH: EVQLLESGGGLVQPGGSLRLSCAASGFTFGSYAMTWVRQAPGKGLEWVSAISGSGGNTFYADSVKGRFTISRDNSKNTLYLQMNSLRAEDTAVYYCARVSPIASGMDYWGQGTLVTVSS VL: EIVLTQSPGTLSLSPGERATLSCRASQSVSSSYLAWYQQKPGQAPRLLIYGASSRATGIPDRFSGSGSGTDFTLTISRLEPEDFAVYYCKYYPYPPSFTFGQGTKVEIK", "koff / s⁻¹": 0.00109}
{"binder": "L3.PY/L3.KY/H2.QR (antibody, V domains shown, IgG) VH: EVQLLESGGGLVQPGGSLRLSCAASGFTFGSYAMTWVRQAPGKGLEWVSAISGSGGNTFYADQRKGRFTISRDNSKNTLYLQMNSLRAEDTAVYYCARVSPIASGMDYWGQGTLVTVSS VL: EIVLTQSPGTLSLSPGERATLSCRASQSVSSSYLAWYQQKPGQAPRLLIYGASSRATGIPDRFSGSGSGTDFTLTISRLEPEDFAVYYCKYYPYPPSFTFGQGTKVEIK", "koff / s⁻¹": 0.00099}
{"binder": "L3.PY/L3.KF/H3.TAQ (antibody, V domains shown, IgG) VH: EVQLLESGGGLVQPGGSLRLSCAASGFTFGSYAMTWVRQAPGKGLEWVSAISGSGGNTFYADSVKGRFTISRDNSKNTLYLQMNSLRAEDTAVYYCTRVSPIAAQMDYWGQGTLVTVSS VL: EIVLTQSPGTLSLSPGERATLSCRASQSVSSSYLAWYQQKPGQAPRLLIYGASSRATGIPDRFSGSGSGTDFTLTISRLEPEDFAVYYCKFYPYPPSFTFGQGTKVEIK", "koff / s⁻¹": 0.00162}
{"binder": "L3.PY/L3.KF/H2.DY (antibody, V domains shown, IgG) VH: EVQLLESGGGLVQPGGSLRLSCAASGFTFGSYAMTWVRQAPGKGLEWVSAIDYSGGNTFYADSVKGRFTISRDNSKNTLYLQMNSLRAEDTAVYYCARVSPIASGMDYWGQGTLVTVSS VL: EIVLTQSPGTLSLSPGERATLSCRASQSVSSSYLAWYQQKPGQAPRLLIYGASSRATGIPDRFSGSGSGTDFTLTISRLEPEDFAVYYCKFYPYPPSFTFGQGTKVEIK", "koff / s⁻¹": 0.00182}

Reported koff of L3.PY/H3.YA (antibody, V domains shown, IgG) VH: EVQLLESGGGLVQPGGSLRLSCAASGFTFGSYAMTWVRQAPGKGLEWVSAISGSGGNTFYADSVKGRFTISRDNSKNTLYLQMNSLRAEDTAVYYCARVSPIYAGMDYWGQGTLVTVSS VL: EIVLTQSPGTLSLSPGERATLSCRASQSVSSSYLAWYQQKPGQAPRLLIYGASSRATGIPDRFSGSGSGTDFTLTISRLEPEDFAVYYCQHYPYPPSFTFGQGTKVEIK : 0.00118

Please fill in: koff reported for L3.PY/L1.AH/H2.QR (antibody, V domains shown, IgG) VH: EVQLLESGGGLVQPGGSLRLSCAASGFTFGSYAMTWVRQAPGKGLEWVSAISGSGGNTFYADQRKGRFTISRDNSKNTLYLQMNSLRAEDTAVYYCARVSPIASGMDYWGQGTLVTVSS VL: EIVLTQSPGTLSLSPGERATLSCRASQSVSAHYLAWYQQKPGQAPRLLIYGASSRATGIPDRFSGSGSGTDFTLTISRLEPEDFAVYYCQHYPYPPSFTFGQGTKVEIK = 0.00181

L3.PY/L1.PS/P6E01 (antibody, V domains shown, IgG) VH: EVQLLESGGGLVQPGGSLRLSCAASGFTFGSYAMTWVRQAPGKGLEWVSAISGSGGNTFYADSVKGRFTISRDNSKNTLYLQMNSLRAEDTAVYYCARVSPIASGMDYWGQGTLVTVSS VL: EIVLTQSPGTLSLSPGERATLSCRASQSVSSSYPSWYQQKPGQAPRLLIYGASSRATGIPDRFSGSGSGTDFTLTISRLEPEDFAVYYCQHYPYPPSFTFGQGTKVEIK yielded koff of 0.00113

get_value(item= L3.PY/L1.PS/H2.HA (antibody, V domains shown, IgG) VH: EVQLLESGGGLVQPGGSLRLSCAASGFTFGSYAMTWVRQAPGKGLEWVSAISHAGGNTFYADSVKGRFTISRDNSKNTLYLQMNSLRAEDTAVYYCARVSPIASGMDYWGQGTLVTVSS VL: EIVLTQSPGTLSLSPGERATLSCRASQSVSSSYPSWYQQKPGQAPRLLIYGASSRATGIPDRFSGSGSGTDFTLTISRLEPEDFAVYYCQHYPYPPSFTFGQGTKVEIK , readout=koff) returns 0.0106

Entry L3.PY/L1.PH/H3.AQ (antibody, V domains shown, IgG) VH: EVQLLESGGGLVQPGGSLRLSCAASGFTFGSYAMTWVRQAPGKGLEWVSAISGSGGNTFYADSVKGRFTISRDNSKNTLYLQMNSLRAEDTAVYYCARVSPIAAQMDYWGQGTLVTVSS VL: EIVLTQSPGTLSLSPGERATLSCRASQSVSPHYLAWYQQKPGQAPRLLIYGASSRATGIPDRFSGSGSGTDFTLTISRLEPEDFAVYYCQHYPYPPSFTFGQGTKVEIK , koff reported as 0.00159

Record summary for L3.PY/L1.FF/H2.DY (antibody, V domains shown, IgG) VH: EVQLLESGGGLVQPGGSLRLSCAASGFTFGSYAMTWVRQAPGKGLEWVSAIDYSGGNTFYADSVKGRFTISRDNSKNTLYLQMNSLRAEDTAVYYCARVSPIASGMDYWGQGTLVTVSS VL: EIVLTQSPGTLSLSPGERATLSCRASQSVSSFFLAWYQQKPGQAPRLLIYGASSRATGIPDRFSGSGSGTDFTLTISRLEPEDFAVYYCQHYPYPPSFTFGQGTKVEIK : reported koff = 0.00271
